Origin of measurements: ChEMBL document CHEMBL5338746

- assay-text: Fraction unbound in po or iv dosed Wistar rat
- Type: ADME, organism-based
- conditions-used: in vivo
readout-kind: fraction unbound

Q: So what does the record say about fraction unbound for CCCC[C@H](CO)NC(=O)c1c(C)nc2c(OCc3c(F)cccc3F)cccn12 ?
Ans: 0.049

---

- System: Aorta
- assay-text: Vasorelaxant activity in New Zealand White rabbits aortic rings assessed as reduction in phenylephrine-induced contraction measured after 30 mins
- Format: functional, tissue-based
- conditions-used: Oryctolagus cuniculus, 0.5 h
Documented pIC50 across a set of compounds
Please note pIC50 is a logarithmic value: minus log10 of concentration in mol/L. Answer with that number alone.

Q: So what does the record say about pIC50 for CC[C@](C)(N)CNC(=O)c1c(C)nc2c(OCc3c(F)cccc3F)cc(C)cn12 ?
Ans: 7.57

Q: So what does the record say about pIC50 for Cc1nc2c(OCc3c(F)cccc3F)cccn2c1C(=O)NC(CN)c1ccc(F)c(F)c1 (single isomer, unassigned; enantiomer B) ?
Ans: 6.20

Q: So what does the record say about pIC50 for Cc1nc2c(OCC3CCC3)cccn2c1C(=O)NCc1ccc(Cl)cc1 ?
Ans: 6.08

---

Documented CLhep predicted across a set of compounds
- assay-text: Metabolic stability in rat hepatocytes assessed as clearance measured upto 90 mins by LC-MS/MS analysis
- Type: ADME, cell-based, Hepatocyte

Example entries begin here.
# line-notation, result
records = [
    ("CCCC[C@H](CO)NC(=O)c1c(C)nc2c(OCCC(C)C)cccn12", "48.3 mL/min/kg"),
    ("CCCC[C@H](CO)NC(=O)c1c(C)nc2c(OCc3cccc(F)c3F)cccn12", "25 mL/min/kg"),
    ("Cc1nc2c(OCC3CCC3)cccn2c1C(=O)NCc1ccc(Cl)cc1", "60 mL/min/kg"),
    ("Cc1nc2c(OCC3CCC3)cccn2c1C(=O)NCCOCCO", "25 mL/min/kg"),
]

Continue with the next compound.
Q: So what does the record say about CLhep predicted for CCCC[C@H](CO)NC(=O)c1c(C)nc2c(OCc3c(F)cccc3F)cc(C3CC3)cn12 ?
Ans: 51.7 mL/min/kg

---

- assay-text: Apparent permeability across apical to basolateral side in human Caco-2 cells incubated for 2 hrs by LC-MS/MS analysis
- Type: ADME, cell-based
readout-kind: Papp A→B at 2 h (×10⁻⁶ cm/s)
Give just the numeric value; ×10⁻⁶ cm/s need not be written.

Q: So what does the record say about Papp A→B at 2 h for CCCC[C@H](CO)NC(=O)c1c(C)nc2c(OCc3c(F)cccc3F)cccn12 ?
Ans: 41.3

---

- assay-text: Solubility of compound in PBS at pH 6.5 measured for 24 hrs by LC-MS/MS analysis
- Format: physicochemical
readout-kind: solubility at 24 h (µg/mL)
Give just the numeric value; µg/mL need not be written.

Q: So what does the record say about solubility at 24 h for CCCC[C@H](CO)NC(=O)c1c(C)nc2c(OCc3c(F)cccc3F)cccn12 ?
Ans: 3

---

- assay-text: Efflux ratio of apparent permeability basolateral to apical side over apical to basolateral side in human Caco-2 cells incubated for 2 hrs by LC-MS/MS analysis
- Type: ADME, cell-based
readout-kind: efflux ratio at 2 h

Q: So what does the record say about efflux ratio at 2 h for CCCC[C@H](CO)NC(=O)c1c(C)nc2c(OCc3c(F)cccc3F)cccn12 ?
Ans: 0.6

---

- assay-text: Blood clearance in Wistar rat at 0.3 mg/kg, iv administered as infusion incubated for 20 mins by HR LC-MS/MS analysis
- Assay type: ADME, organism-based
- conditions-used: whole blood
readout-kind: clearance at […] (mL/min/kg)
Give just the numeric value; mL/min/kg need not be written.

Q: So what does the record say about clearance at […] for CCCC[C@H](CO)NC(=O)c1c(C)nc2c(OCc3c(F)cccc3F)cccn12 ?
Ans: 26.7

---

- target-of-assay: Soluble guanylate cyclase alpha1/beta1 complex (Rattus norvegicus) (UniProt P19686+P20595)
- assay-text: Stimulation of recombinant rat sGC alpha1/beta1 expressed in CHO cells assessed as formation of cGMP from GTP by measuring concentration for >3-fold increase in the basal luminescence value by luminescence based analysis
- Type: cell-based
- conditions-used: filed as activator
readout-kind: MEC (µM)
Give just the numeric value; µM need not be written.

Example entries begin here.
# line-notation, target-of-assay, value-unit, MEC
data = [
    ("CCCC[C@H](CO)NC(=O)c1cnc2c(OCc3c(F)cccc3F)cccn12", "Soluble guanylate cyclase alpha1/beta1 complex (Rattus norvegicus) (UniProt P19686+P20595)", "µM", 0.3),
    ("CCCC[C@H](CO)NC(=O)c1c(C)nc2c(OCCC(C)C)cccn12", "Soluble guanylate cyclase alpha1/beta1 complex (Rattus norvegicus) (UniProt P19686+P20595)", "µM", 1),
    ("CCCC[C@H](CO)NC(=O)c1c(C)nc2c(OCc3c(F)cccc3F)cc(F)cn12", "Soluble guanylate cyclase alpha1/beta1 complex (Rattus norvegicus) (UniProt P19686+P20595)", "µM", 0.03),
    ("Cc1nc2c(OCC3CCC3)cccn2c1C(=O)NCCOCCO", "Soluble guanylate cyclase alpha1/beta1 complex (Rattus norvegicus) (UniProt P19686+P20595)", "µM", 3),
    ("CCCC[C@H](CO)NC(=O)c1c(C)nc2c(OCc3c(F)cccc3F)cc(Cl)cn12", "Soluble guanylate cyclase alpha1/beta1 complex (Rattus norvegicus) (UniProt P19686+P20595)", "µM", 0.01),
]

Q: So what does the record say about MEC for CCCC[C@H](CO)NC(=O)c1c(C)nc2c(OCc3cccc(F)c3F)cccn12 ?
Ans: 0.3

Q: So what does the record say about MEC for CCCC[C@H](CO)NC(=O)c1c(C)nc2c(OCc3c(C)cccc3C)cccn12 ?
Ans: 3

Q: So what does the record say about MEC for Cc1nc2c(OCC3CCC3)cccn2c1C(=O)NCc1ccc(Cl)cc1 ?
Ans: 1

Q: So what does the record say about MEC for CCCC[C@H](CO)NC(=O)c1c(C2CC2)nc2c(OCc3c(F)cccc3F)cccn12 ?
Ans: 0.3

Q: So what does the record say about MEC for CCCC[C@H](CO)NC(=O)c1c(C)nc2c(OCc3c(F)cccc3F)cc(C)cn12 ?
Ans: 0.01

---

Documented CLhep predicted across a set of compounds
- assay-text: Metabolic stability in rat hepatocytes assessed as clearance measured upto 90 mins by LC-MS/MS analysis
- Assay type: ADME, cell-based, Hepatocyte

# line-notation, CLhep predicted
rows = [
    ("CCCC[C@H](CO)NC(=O)c1c(C)nc2c(OCc3c(F)cccc3F)cc(Cl)cn12", "48.3 mL/min/kg"),
]

Q: So what does the record say about CLhep predicted for CCCC[C@H](CO)NC(=O)c1c(C)nc2c(OCc3c(C)cccc3C)cccn12 ?
Ans: 43.3 mL/min/kg

Q: So what does the record say about CLhep predicted for CCCC[C@H](CO)NC(=O)c1c(C)nc2c(OCc3c(F)cccc3F)cc(C)cn12 ?
Ans: 56.7 mL/min/kg

Q: So what does the record say about CLhep predicted for CCCC[C@H](CO)NC(=O)c1c(C)nc2c(OCc3c(F)cccc3F)cc(F)cn12 ?
Ans: 51.7 mL/min/kg

---

- assay-text: Half life in Wistar rat at 0.3 mg/kg, iv administered as infusion by LC-MS/MS analysis
- Format: ADME, organism-based
- conditions-used: in vivo
readout-kind: half-life (min)
Give just the numeric value; min need not be written.

Q: So what does the record say about half-life for CCCC[C@H](CO)NC(=O)c1c(C)nc2c(OCc3c(F)cccc3F)cccn12 ?
Ans: 48

---

- target-of-assay: Soluble guanylate cyclase alpha1/beta1 complex (Rattus norvegicus) (UniProt P19686+P20595)
- assay-text: Stimulation of recombinant rat sGC alpha1/beta1 expressed in CHO cells assessed as formation of cGMP from GTP by measuring concentration for >3-fold increase in the basal luminescence value by luminescence based analysis
- Format: cell-based
- conditions-used: filed as activator
readout-kind: MEC (µM)
Give just the numeric value; µM need not be written.

Example entries begin here.
# line-notation, value-unit, numeric-value
data = [
    ("CCCC[C@H](CO)NC(=O)c1c(C)nc2c(OCc3c(F)cccc3F)cccn12", "µM", 0.05),
    ("CCCC[C@H](CO)NC(=O)c1c(C)nc2c(OCc3c(F)cc(F)cc3F)cccn12", "µM", 0.1),
    ("CCCC[C@H](CO)NC(=O)c1c(C)nc2c(OCc3c(F)cccc3F)cc(C3CC3)cn12", "µM", 1),
]

Q: Quick check: MEC on Soluble guanylate cyclase alpha1/beta1 complex (Rattus norvegicus) (UniProt P19686+P20595), item Cc1nc2c(OCC3CCC3)cccn2c1C(=O)NCCC1(O)CCCCC1 ?
Ans: 3

Q: Quick check: MEC on Soluble guanylate cyclase alpha1/beta1 complex (Rattus norvegicus) (UniProt P19686+P20595), item CCCC[C@H](CO)NC(=O)c1c(C)nc2c(OCc3ccccc3)cccn12 ?
Ans: 1
